# MEASUREMENT TARGET: κ opioid receptor (Homo sapiens (Human), UniProt P41145)
# PROCEDURE TEXT: κ-opioid receptor [35S]GTPγS functional assay, U-2 OS cells
# Assay type: biochemical
# RUN PARAMETERS: relative to U69,593; U-2 OS cells
MEASUREMENT LABEL: Emax

• CCN1C(=O)N(Cc2ccc(O)cc2)C(=O)[C@@]12CC[C@@]1(O)[C@H]3Cc4ccc(O)cc4[C@@]1(CCN3CC1CC1)C2 [Compound 48] = 105%
• COc1ccc2c(c1)[C@]13CCN(CC=C(C)C)[C@H](C2)[C@]1(O)CC[C@@]1(C3)NC(=O)NC1=O [Compound 21] = -1%
• COc1ccc2c(c1)[C@]13CCN(CC(F)(F)F)[C@H](C2)[C@]1(O)CC[C@@]1(C3)NC(=O)NC1=O [Compound 13] = 65%
• O=C1NC(=O)[C@@]2(CC[C@@]3(O)[C@H]4Cc5ccc(O)cc5[C@@]3(CCN4CCF)C2)N1 [Compound 30] = 99.7%
• COc1ccc2c(c1)[C@]13CCN(CC(F)F)[C@H](C2)[C@]1(O)CC[C@@]1(C3)NC(=O)NC1=O [Compound 19] = 52%
• COc1ccc2c(c1)[C@]13CCN(CCC(F)(F)F)[C@H](C2)[C@]1(O)CC[C@@]1(C3)NC(=O)NC1=O [Compound 17] = 83.7%
• O=C1NC(=O)[C@@]2(CC[C@@]3(O)[C@H]4Cc5ccc(O)cc5[C@@]3(CCN4CCC(F)(F)F)C2)N1 [Compound 33] = 98.3%
• COc1ccc2c(c1)[C@]13CCN(C/C=C/c4ccccc4)[C@H](C2)[C@]1(O)CC[C@@]1(C3)NC(=O)NC1=O [Compound 24] = 29.7%
• COc1ccc2c(c1)[C@]13CCN(CCF)[C@H](C2)[C@]1(O)CC[C@@]1(C3)NC(=O)NC1=O [Compound 14] = 110%
• CCN1C(=O)NC(=O)[C@@]12CC[C@@]1(O)[C@H]3Cc4ccc(O)cc4[C@@]1(CCN3C)C2 [Compound 69] = 110%
• CCN1C(=O)N[C@]2(CC[C@@]3(O)[C@H]4Cc5ccc(OC)cc5[C@@]3(CCN4CC)C2)C1=O [Compound 16] = 50%
• O=C1NC(=O)[C@@]2(CC[C@@]3(O)[C@H]4Cc5ccc(O)cc5[C@@]3(CCN4CCCC(F)(F)F)C2)N1 [Compound 34] = 87.7%
• COc1ccc2c(c1)[C@]13CCN(CCCC(F)(F)F)[C@H](C2)[C@]1(O)CC[C@@]1(C3)NC(=O)NC1=O [Compound 18] = 86%
• CCN1C(=O)NC(=O)[C@@]12CC[C@@]1(O)[C@H]3Cc4ccc(O)cc4[C@@]1(CCN3CC1CC1)C2 [Compound 49] = 111%
• CN1CC[C@]23C[C@@]4(CC[C@@]2(O)[C@H]1Cc1ccc(O)cc13)C(=O)NC(=O)N4C [Compound 70] = 118%
• N#CCN1C(=O)NC(=O)[C@@]12CC[C@@]1(O)[C@H]3Cc4ccc(O)cc4[C@@]1(CCN3CC1CC1)C2 [Compound 68] = 108%
• CN1CC[C@]23C[C@@]4(CC[C@@]2(O)[C@H]1Cc1ccc(O)cc13)C(=O)NC(=O)N4CC1CC1 [Compound 66] = 103%
• CCN1C(=O)N(CC)[C@]2(CC[C@@]3(O)[C@H]4Cc5ccc(O)cc5[C@@]3(CCN4CC3CC3)C2)C1=O [Compound 46] = 96.7%
• COc1ccc2c(c1)[C@]13CCN(CC4CCOCC4)[C@H](C2)[C@]1(O)CC[C@@]1(C3)NC(=O)NC1=O [Compound 25] = 10%
• CCN1CC[C@]23C[C@]4(CC[C@@]2(O)[C@H]1Cc1ccc(OC)cc13)NC(=O)NC4=O [Compound 15] = 65.3%
• COc1ccc2c(c1)[C@]13CCN(CCC(C)C)[C@H](C2)[C@]1(O)CC[C@@]1(C3)NC(=O)NC1=O [Compound 22] = 91.3%
• O=C1NC(=O)[C@@]2(CC[C@@]3(O)[C@H]4Cc5ccc(O)cc5[C@@]3(CCN4CC(F)(F)F)C2)N1 [Compound 32] = 104%
• CCN1C(=O)N[C@]2(CC[C@@]3(O)[C@H]4Cc5ccc(O)cc5[C@@]3(CCN4CC3CC3)C2)C1=O [Compound 45] = 96.3%
• O=C1NC(=O)[C@@]2(CC[C@@]3(O)[C@H]4Cc5ccc(O)cc5[C@@]3(CCN4CCc3ccccc3)C2)N1 [Compound 35] = 84%
• O=C1NC(=O)[C@@]2(CC[C@@]3(O)[C@H]4Cc5ccc(O)cc5[C@@]3(CCN4CC3CCCCC3)C2)N1 [Compound 27] = 33.3%
• O=C1NC(=O)[C@@]2(CC[C@@]3(O)[C@H]4Cc5ccc(O)cc5[C@@]3(CCN4CC3CC3)C2)N1CC(F)(F)F [Compound 64] = 106%
• CCN1C(=O)N[C@]2(CC[C@@]3(O)[C@H]4Cc5ccc(O)cc5[C@@]3(CCN4C)C2)C1=O [Compound 61] = 109%
• CCN1C(=O)N(CC)[C@]2(CC[C@@]3(O)[C@H]4Cc5ccc(O)cc5[C@@]3(CCN4C)C2)C1=O [Compound 62] = 108%
